Recorded values, source paper PMC8906099.

assay: Time-course cytotoxicity in infected C2C12 cells; format: cell-based, murine; conditions: mouse
CC50 at 8 h strictly under 30 µM means condition met; at 30 µM or over means condition not met.

## Task In plain terms, does `O=C(/C=C/c1ccc(Cl)cc1)/C=C/c1ccc(Cl)cc1` come in under 30 µM for CC50 at 8 h?
## Result condition not met

## Task Would you kindly verify if CC50 at 8 h of COc1cc(/C=C/C(=O)CC(=O)/C=C/c2ccc(O)c(OC)c2)ccc1O [CUR, reference compound] is strictly less than 30 µM?
## Result condition not met

## Task Quick check: CC50 at 8 h of `COc1ccc(/C=C/C(=O)/C=C/c2ccc(OC)cc2)cc1` under 30 µM?
## Result condition not met

## Task Given the entry `O=C(/C=C/c1ccccc1)/C=C/c1ccccc1` , would its reported CC50 at 8 h be below 30 µM?
## Result condition met

## Task Strictly below 30 µM: is that where CC50 at 8 h of `COc1cc(OC)c(/C=C/C(=O)/C=C/c2c(OC)cc(OC)cc2OC)c(OC)c1` sits?
## Result condition not met

###

test: Cytotoxicity in infected C2C12 cells after 72 h; assay type: cell-based, murine; conditions: mouse, C2C12 cells infected with T. cruzi CA-I/72 strain
Exercise: state measured CC50 at 72 h for each of the compounds provided.
Quick reminder: number only, in µM, skip the unit.

## Task Which CC50 at 72 h is listed for `COc1ccc(/C=C/C(=O)/C=C/c2ccc(OC)cc2)cc1` ?
## Result 4.3

## Task So what does the record say about CC50 at 72 h for `O=C(/C=C/c1ccc(Cl)cc1)/C=C/c1ccc(Cl)cc1` ?
## Result 15.5

## Task Reported CC50 at 72 h, compound `COc1cc(OC)c(/C=C/C(=O)/C=C/c2c(OC)cc(OC)cc2OC)c(OC)c1` : ____
## Result 0.6

## Task Name the recorded CC50 at 72 h for `O=C(/C=C/c1ccccc1)/C=C/c1ccccc1` .
## Result 5.74

## Task Consider the compound shown here: `COc1ccc(/C=C/C(=O)/C=C/c2ccc(OC)c(OC)c2)cc1OC` What is its recorded CC50 at 72 h?
## Result 1.62

## Task Fill in: CC50 at 72 h of COc1cc(/C=C/C(=O)CC(=O)/C=C/c2ccc(O)c(OC)c2)ccc1O [CUR, reference compound] is ___
## Result 6.71

###

system: amastigotes of T. cruzi Sylvio X10/7 strain; assay: Trypanocidal activity against intracellular amastigotes in C2C12 cells; type: cell-based, Trypanosoma cruzi; conditions: Trypanosoma cruzi, C2C12, 72 h, read-out: IC50 ± SD, amastigotes, Sylvio X10/7 strain, 72 h incubation
Kindly state IC50 for each of the entries shown.

## Task For `COc1ccc(/C=C/C(=O)/C=C/c2ccc(OC)c(OC)c2)cc1OC` , what is its reported IC50?
## Result 4.87 µM

## Task May I ask what IC50 has been recorded for COc1cc(/C=C/C(=O)CC(=O)/C=C/c2ccc(O)c(OC)c2)ccc1O [CUR, reference compound] ?
## Result 11.6 µM

## Task I'd like to know its IC50. The molecule in question is `O=C(/C=C/c1ccc(Cl)cc1)/C=C/c1ccc(Cl)cc1`
## Result 25.3 µM

## Task I have this molecule here, `COc1ccc(/C=C/C(=O)/C=C/c2ccc(OC)cc2)cc1` , and I need its recorded IC50.
## Result 0.48 µM

## Task What does the record list as IC50 for O=C(Cn1ccnc1[N+](=O)[O-])NCc1ccccc1 [BZ, benznidazole, reference compound] ?
## Result 1.19 µM

## Task Reported IC50, molecule `O=C(/C=C/c1ccccc1)/C=C/c1ccccc1` : ____
## Result 11.7 µM

## Task Reported IC50 for `COc1cc(OC)c(/C=C/C(=O)/C=C/c2c(OC)cc(OC)cc2OC)c(OC)c1` : what is it?
## Result 33.1 µM

###

Can you tell me IC50 for the items I'm about to list?
test system: intracellular amastigotes of T. cruzi CA-I/72 strain; assay: Time-course study against intracellular amastigotes; type: cell-based; conditions: Trypanosoma cruzi, read-out: IC50 over the incubation times evaluated

## Task Entry under review: O=C(Cn1ccnc1[N+](=O)[O-])NCc1ccccc1 [BZ, benznidazole, reference compound] . Reported IC50?
## Result 1.54 to 10 µM

## Task Any idea what IC50 was measured for COc1ccc(/C=C/C(=O)/C=C/c2ccc(OC)cc2)cc1 [DBA 2] ?
## Result > 100 µM

## Task // query IC50 value for entry O=C(/C=C/c1ccc(Cl)cc1)/C=C/c1ccc(Cl)cc1 [DBA 5]
## Result > 100 µM

###

For each entry below, report its CC50 at 24 h value.
test: Time-course cytotoxicity in infected C2C12 cells; type: cell-based, murine; details: mouse
Just the number please, in nM, no unit attached.

## Task Param item = COc1ccc(/C=C/C(=O)/C=C/c2ccc(OC)c(OC)c2)cc1OC [DBA 3] ; retrieve measured CC50 at 24 h.
## Result 210

## Task Which measured CC50 at 24 h value corresponds to COc1ccc(/C=C/C(=O)/C=C/c2ccc(OC)cc2)cc1 [DBA 2] ?
## Result 330

## Task Which value of CC50 at 24 h has been reported for O=C(Cn1ccnc1[N+](=O)[O-])NCc1ccccc1 [BZ, benznidazole, reference compound] in the records?
## Result 3480

## Task Which CC50 at 24 h value belongs to COc1cc(/C=C/C(=O)CC(=O)/C=C/c2ccc(O)c(OC)c2)ccc1O [CUR, reference compound] ?
## Result 1880

## Task Record request: CC50 at 24 h value, item COc1cc(OC)c(/C=C/C(=O)/C=C/c2c(OC)cc(OC)cc2OC)c(OC)c1 [DBA 4]
## Result 2980

## Task I would be grateful if you could share the reported CC50 at 24 h for O=C(/C=C/c1ccccc1)/C=C/c1ccccc1 [DBA 1, (1E,4E)-1,5-diphenylpenta-1,4-dien-3-one] .
## Result 280

## Task Param item = O=C(/C=C/c1ccc(Cl)cc1)/C=C/c1ccc(Cl)cc1 [DBA 5] ; retrieve measured CC50 at 24 h.
## Result 300

###

test: Cytotoxicity in infected C2C12 cells after 72 h; format: cell-based, murine; conditions: mouse, C2C12 cells infected with T. cruzi Sylvio X10/4 strain
measured-attribute: CC50 at 72 h

## Task Sample O=C(Cn1ccnc1[N+](=O)[O-])NCc1ccccc1 [BZ, benznidazole, reference compound] — what was its CC50 at 72 h?
## Result > 10000 nM

## Task Bench note: what CC50 at 72 h did `O=C(/C=C/c1ccccc1)/C=C/c1ccccc1` show?
## Result 3800 nM

## Task // lookup CC50 at 72 h for `COc1cc(OC)c(/C=C/C(=O)/C=C/c2c(OC)cc(OC)cc2OC)c(OC)c1`
## Result 110 nM

## Task May I ask what CC50 at 72 h has been recorded for `COc1ccc(/C=C/C(=O)/C=C/c2ccc(OC)cc2)cc1` ?
## Result 2540 nM

## Task Requested field: CC50 at 72 h. Item: `O=C(/C=C/c1ccc(Cl)cc1)/C=C/c1ccc(Cl)cc1`
## Result 11800 nM

## Task Would you kindly share the measured CC50 at 72 h for COc1cc(/C=C/C(=O)CC(=O)/C=C/c2ccc(O)c(OC)c2)ccc1O [CUR, reference compound] ?
## Result 1910 nM

## Task What does the data say about its CC50 at 72 h? Entry: `COc1ccc(/C=C/C(=O)/C=C/c2ccc(OC)c(OC)c2)cc1OC`
## Result 1250 nM

###

system: non-infected LLC-MK2 cells; experiment: Cytotoxicity in non-infected cells; format: cell-based, monkey; conditions: non-infected LLC-MK2 CC50 / IC50 amastigotes CA-I/72 strain, 72 h
measured-attribute: SI (CC50/IC50)
Could you keep your reply to the number by itself?

## Task Field request: SI (CC50/IC50) | item: `O=C(/C=C/c1ccc(Cl)cc1)/C=C/c1ccc(Cl)cc1`
## Result 1.13

## Task Reported SI (CC50/IC50), compound `COc1ccc(/C=C/C(=O)/C=C/c2ccc(OC)c(OC)c2)cc1OC` : ____
## Result 7.62

## Task Dear colleague, I am looking for the recorded SI (CC50/IC50) of the following compound: `O=C(/C=C/c1ccccc1)/C=C/c1ccccc1`
## Result 3.54

## Task Any idea what its SI (CC50/IC50) is? The compound is `COc1ccc(/C=C/C(=O)/C=C/c2ccc(OC)cc2)cc1`
## Result 1.79

## Task SI (CC50/IC50) lookup needed for O=C(Cn1ccnc1[N+](=O)[O-])NCc1ccccc1 [BZ, benznidazole, reference compound] , thanks.
## Result 82.92
